Please respond with reported FACS-Seq fitted mean (log10) for every item in the list.
B1: library; a variant is named by its letters at N, in order (parent)
chain: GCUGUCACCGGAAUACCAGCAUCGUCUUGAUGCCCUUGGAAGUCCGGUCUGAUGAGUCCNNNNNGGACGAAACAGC

variants of: B1; experiment: FACS-Seq fitted mean relative fluorescence mCherry/BFP with ligand (log10 relative fluorescence); ligand concentration (+) FACS-Seq: 1 mM; higher = higher reporter protein expression; conditions: HEK293T, ligand present: yes
API note: the answer field is a bare number with no unit suffix.

Inquiry: Which FACS-Seq fitted mean (log10) is reported for this variant? AGCAA
Reply text: 0.627

Inquiry: Would you kindly share the measured FACS-Seq fitted mean (log10) for AAUUU ?
Reply text: 0.637

Inquiry: Quick check: FACS-Seq fitted mean (log10) of UAGAA ?
Reply text: 0.448

Inquiry: Which FACS-Seq fitted mean (log10) reading was recorded for the variant UAAGC ?
Reply text: 1.04

Inquiry: Entry ACACU : reported FACS-Seq fitted mean (log10) = ?
Reply text: 0.802

Inquiry: Recorded FACS-Seq fitted mean (log10) of AAACA , please.
Reply text: 0.172

Inquiry: Give the measured FACS-Seq fitted mean (log10) of UGGAC .
Reply text: 0.236

Inquiry: Recorded FACS-Seq fitted mean (log10) of AGGCU , please.
Reply text: 0.847

Inquiry: Please look up its FACS-Seq fitted mean (log10): AUUUC
Reply text: 0.865

Inquiry: Given CUGUU , state its recorded FACS-Seq fitted mean (log10).
Reply text: -0.12

Inquiry: FACS-Seq fitted mean (log10) for CACUC ?
Reply text: 0.969

Inquiry: What FACS-Seq fitted mean (log10) value was documented for this variant, CACAU ?
Reply text: 0.693

Inquiry: # get_value(readout='FACS-Seq fitted mean (log10)', item= GCAUG )
Reply text: 0.966

Inquiry: Any idea what its FACS-Seq fitted mean (log10) is? The variant is CCCGC
Reply text: 1.05

Inquiry: What does the data say about its FACS-Seq fitted mean (log10)? Entry: UAGAU
Reply text: 0.828

Inquiry: I would be grateful if you could share the reported FACS-Seq fitted mean (log10) for CAAUA .
Reply text: 0.785

Inquiry: Which FACS-Seq fitted mean (log10) value is on record for GAGAU ?
Reply text: 0.958
